Tested on: Ruminococcus gnavus DSM 108212
method_description: fold change of 2-Phenylethylamine concentration vs plate DMSO controls (fold change (ratio)); higher = more amine produced, active = hit call of the paper (significant change in both replicates, either direction)
conditions_used: incubation time: 27 h, anaerobic, 37 °C
Structures can show the parent of a compound that is named as a salt.
Values of fold change of 2-Phenylethylamine concentration greater than or equal to 0.9 map to Satisfied; values below map to Not satisfied.

Recorded results for 3 compounds are shown here.
- compound: "CCN[C@@H]1C[C@H](N)[C@@H](O[C@H]2OC(CN)=CC[C@H]2N)[C@H](O)[C@H]1O[C@H]1OC[C@](C)(O)[C@H](NC)[C@H]1O [Netilmicin sulfate] (20 µM)"
  label_value: "Satisfied"
- compound: "CCC(C)(C)C(=O)O[C@H]1C[C@@H](C)C=C2C=C[C@H](C)[C@H](CC[C@@H]3C[C@@H](O)CC(=O)O3)[C@H]21 [Simvastatin] (20 µM)"
  label_value: "Satisfied"
- compound: "Cc1nc2ccccn2c(=O)c1CCN1CCC(C(=O)c2ccc(F)cc2)CC1 [Pirenperone] (20 µM)"
  label_value: "Satisfied"

Q: Given the entry CN(C)CCn1nnnc1SCC1=C(C(=O)O)N2C(=O)[C@@H](NC(=O)Cc3csc(N)n3)[C@H]2SC1 [Cefotiam hydrochloride] (20 µM) , answer whether its fold change of 2-Phenylethylamine concentration meets or surpasses 0.9.
A: Not satisfied

====

Test system: Ruminococcus gnavus DSM 108212
method_description: growth (OD595) fold change vs plate DMSO controls (fold change (ratio)); higher = more growth
conditions_used: incubation time: 27 h, anaerobic, 37 °C
Counter-ions that a name gives are not always drawn.
growth of 1 or higher: 1. Under 1: -1.

- molecule: "COc1ccc(CC(C)NCC(O)c2ccc(O)c(NC=O)c2)cc1 (stereo not drawn) [Formoterol fumarate] (20 µM)"
  system_name: "Ruminococcus gnavus DSM 108212"
  label_value: 1
- molecule: "CN(C)CCCN1c2ccccc2CCc2ccccc21 [Imipramine hydrochloride] (20 µM)"
  system_name: "Ruminococcus gnavus DSM 108212"
  label_value: 1
- molecule: "Clc1ccc(Cn2c(CN3CCCC3)nc3ccccc32)cc1 [Clemizole hydrochloride] (20 µM)"
  system_name: "Ruminococcus gnavus DSM 108212"
  label_value: -1
- molecule: "CCCCCNC(=N)N/N=C/c1c[nH]c2ccc(OC)cc12 [Tegaserod maleate] (20 µM)"
  system_name: "Ruminococcus gnavus DSM 108212"
  label_value: 1
- molecule: "Nc1cc(C(Cl)=C(Cl)Cl)c(S(N)(=O)=O)cc1S(N)(=O)=O [Clorsulon] (20 µM)"
  system_name: "Ruminococcus gnavus DSM 108212"
  label_value: -1
- molecule: "COC(=O)[C@H](c1ccccc1Cl)N1CCc2sccc2C1 [Clopidogrel] (20 µM)"
  system_name: "Ruminococcus gnavus DSM 108212"
  label_value: -1
- molecule: "O=C(O)CCC(=O)Nc1ccc(S(=O)(=O)Nc2nccs2)cc1 [Succinylsulfathiazole] (20 µM)"
  system_name: "Ruminococcus gnavus DSM 108212"
  label_value: 1
- molecule: "Cc1c(O)cccc1C(=O)N[C@@H](CSc1ccccc1)[C@H](O)CN1C[C@H]2CCCC[C@H]2C[C@H]1C(=O)NC(C)(C)C [Nelfinavir mesylate] (20 µM)"
  system_name: "Ruminococcus gnavus DSM 108212"
  label_value: -1
- molecule: "COC(=O)[C@H](Cc1ccccc1)NC(=O)[C@H](CC(=O)O)NCCC(C)(C)C [Neotame] (50 µM)"
  system_name: "Ruminococcus gnavus DSM 108212"
  label_value: 1
- molecule: "Cc1c(N)c(=O)n(-c2ccccc2)n1C [Ampyrone] (20 µM)"
  system_name: "Ruminococcus gnavus DSM 108212"
  label_value: -1

Q: Confirm if growth reported for the molecule O=c1cc(-c2ccc(O)c(O)c2)oc2cc(O)cc(O)c12 [Luteolin] (20 µM) is 1 or above.
A: 1

Q: Answer whether growth of CCc1c2c(nc3ccc(OC(=O)N4CCC(N5CCCCC5)CC4)cc13)-c1cc3c(c(=O)n1C2)COC(=O)[C@]3(O)CC [Irinotecan hydrochloride trihydrate] (20 µM) is greater than or equal to 1.
A: 1

Q: Hi team, for NC(=O)C1CO1 (stereo not drawn) [Glycidamide] (20 µM) , is the recorded growth at or above 1?
A: 1

Q: Can C[C@@H]1O[C@@H](O[C@H]2[C@H](Oc3cc(O)c(C(=O)CCc4ccc(O)cc4)c(O)c3)O[C@H](CO)[C@@H](O)[C@@H]2O)[C@H](O)[C@H](O)[C@H]1O [Naringin Dihydrochalcone] (50 µM) be said to have growth at or above 1?
A: 1

====

System: Klebsiella aerogenes DSM 30053
method_description: fold change of Cadaverine concentration vs plate DMSO controls (fold change (ratio)); higher = more amine produced, active = hit call of the paper (significant change in both replicates, either direction)
conditions_used: incubation time: 27 h, anaerobic, 37 °C
Where a name gives a salt, the structure may show the parent alone.
Hi there, I'd appreciate the recorded fold change of Cadaverine concentration for every entry that follows.

// known answers, use as guide
- compound: "COCCCC/C(=N\\OCCN)c1ccc(C(F)(F)F)cc1 [Fluvoxamine maleate] (20 µM)"
  fold change of Cadaverine concentration: "0.997 (inactive)"
- compound: "CC(=O)O[C@]1(C(C)=O)CC[C@H]2[C@@H]3C=C(Cl)C4=CC(=O)[C@@H]5C[C@@H]5[C@]4(C)[C@H]3CC[C@@]21C [Cyproterone acetate] (20 µM)"
  fold change of Cadaverine concentration: "0.996 (inactive)"
- compound: "Cc1cc(C(=O)NNCc2ccccc2)no1 [Isocarboxazid] (20 µM)"
  fold change of Cadaverine concentration: "1.02 (inactive)"
- compound: "COC(=O)Nc1nc2cc(C(=O)c3ccccc3)ccc2[nH]1 [Mebendazole] (20 µM)"
  fold change of Cadaverine concentration: "1 (inactive)"
- compound: "O=C1NCN(c2ccccc2)C12CCN(CCCC(c1ccc(F)cc1)c1ccc(F)cc1)CC2 [Fluspirilene] (20 µM)"
  fold change of Cadaverine concentration: "0.995 (inactive)"
- compound: "CC[N+](CC)(CC)CCC(O)(c1ccccc1)C1CCCCC1 (stereo unspecified) [Tridihexethyl chloride] (20 µM)"
  fold change of Cadaverine concentration: "1.02 (inactive)"

Each of the following entries comes with a recorded value; kindly state fold change of Cadaverine concentration for each.
1. CCC(=O)OCC(=O)[C@@]1(OC(=O)CC)[C@@H](C)C[C@H]2[C@@H]3CCC4=CC(=O)C=C[C@]4(C)[C@@]3(Cl)[C@@H](O)C[C@@]21C [Beclomethasone dipropionate] (20 µM)
2. O=C(c1ccc(F)cc1)C1CCN(CCn2c(=O)[nH]c3ccccc3c2=O)CC1 [Ketanserin tartrate hydrate] (20 µM)
3. NS(=O)(=O)c1cc2c(cc1Cl)N=C(CSCc1ccccc1)NS2(=O)=O [Benzthiazide] (20 µM)
4. Nc1ccc(O)c(C(=O)O)c1 [Mesalamine] (20 µM)
5. Cc1onc(-c2ccccc2)c1-c1ccc(S(N)(=O)=O)cc1 [Valdecoxib] (20 µM)

A:
0.995 (inactive)
1.02 (inactive)
0.993 (inactive)
0.98 (inactive)
0.972 (inactive)

====

System: Escherichia coli IAI1
method_description: growth (OD595) fold change vs plate DMSO controls (fold change (ratio)); higher = more growth
conditions_used: incubation time: 27 h, anaerobic, 37 °C
Structures can show the parent of a compound that is named as a salt.
quantity_name: growth
Give bare numbers.

Consider the worked cases shown below.
- compound: "O=c1oc2cc(O)ccc2s1 [Tioxolone] (20 µM)"
  growth: 1.01
- compound: "c1ccc([C@H]2CN3CCSC3=N2)cc1 [Levamisole hydrochloride] (20 µM)"
  growth: 0.988
- compound: "CC(=O)OC[C@H]1O[C@@H]([S-])[C@H](OC(C)=O)[C@@H](OC(C)=O)[C@@H]1OC(C)=O.CCP(CC)CC.[Au+] [Auranofin] (20 µM)"
  growth: 1.02
- compound: "CCOC(=O)C(C)(N)Cc1cc(I)c(Oc2cc(I)c(O)c(I)c2)c(I)c1 (centres undefined) [Etiroxate hydrochloride] (20 µM)"
  growth: 1.02
- compound: "COc1ccccc1OCC(O)COC(N)=O (centres undefined) [Methocarbamol] (20 µM)"
  growth: 1
- compound: "C1CCC(C(CC2CCCCN2)C2CCCCC2)CC1 (centres undefined) [Perhexiline maleate] (20 µM)"
  growth: 1
- compound: "CCN(CC)CCOC(=O)C(c1ccccc1)C1CCCCC1 (centres undefined) [Drofenine hydrochloride] (20 µM)"
  growth: 0.977
- compound: "CC(=O)O[C@@]12CO[C@@H]1C[C@H](O)[C@@]1(C)C(=O)[C@H](O)C3=C(C)[C@@H](OC(=O)[C@H](O)[C@@H](NC(=O)OC(C)(C)C)c4ccccc4)C[C@@](O)([C@@H](OC(=O)c4ccccc4)[C@H]21)C3(C)C [Docetaxel] (20 µM)"
  growth: 1

For each of the items listed, what is its growth?
1. CC(C)=CCC1C(=O)N(c2ccccc2)N(c2ccccc2)C1=O [Feprazone] (20 µM)
2. CC(=O)NS(=O)(=O)c1ccc(N)cc1 [Sulfacetamide sodic hydrate] (20 µM)
3. O=C(NC(Cc1cc(=O)[nH]c2ccccc12)C(=O)O)c1ccc(Cl)cc1 (centres undefined) [Rebamipide] (20 µM)
4. O=C(Cn1ccnc1[N+](=O)[O-])NCCO [Etanidazole] (20 µM)
5. Nc1ccc(S(=O)(=O)Nc2cnc3ccccc3n2)cc1 [Sulfaquinoxaline sodium salt] (20 µM)
6. C[C@H](Cc1cc2c(c(C(N)=O)c1)N(CCCO)CC2)NCCOc1ccccc1OCC(F)(F)F [Silodosin] (20 µM)

A:
0.999
0.995
1.01
1.01
1.01
1
